Method: in vivo
Run Parameters: male, Sprague-Dawley, rat, 10 mg/kg, Bioavailability (relative)
Measured Quantity: bioavailability

> print(dat)
                       smiles.input  observed.value
1  O=S(=O)(c1cccc2cnccc12)N1CCCNCC1            ~40%

###

Method: in vivo
Run Parameters: male, Sprague-Dawley, rat, inhaled or intranasal, 10 mg/kg
Measured Quantity: AUC(0-t) (ng·h/mL)

> print(dat)
                       smiles.input      uom  observed.value
1  O=S(=O)(c1cccc2cnccc12)N1CCCNCC1  ng·h/mL            2.33

###

Method: in vivo
Run Parameters: male, Sprague-Dawley, rat, iv, 10 mg/kg
Measured Quantity: AUC(0-t) (ng·h/mL)

> print(dat)
                                   molecule  observed.value
1  O=S(=O)(c1cccc2cnccc12)N1CCCNCC1 [fasudil]            5.71
